TEST_DETAILS: NCI Yeast Anticancer Drug Screen. Data for the cln2 rad14 strain (AID 165);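 further: 0% = growth equal to vehicle treated cultures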
CONDITION_NOTES: S. cerevisiae cln2 rad14 strain, hits give high values; at 50.0 µM unless noted
This is part of a sample that, as a whole, favours compounds with a hit. Of some 79,000 tested, about 15% had one in any assay.
Quick reference for growth inhibition among some molecules
Write down the numeric answer in % and omit the unit.

Example cases with answers are listed next.
MOLECULE | UOM | growth inhibition
O=C1C(c2ccccc2)=C(c2ccccc2)C1(Cl)Cl | % | 37.6
CC(Cl)(c1ccccc1)C1OCCO1 (configuration not stated) | % | -20.9
COC(C(=O)Nc1ccc(C)cc1)(c1ccccc1)c1ccccc1 | % | 0.65
OCC[P+](c1ccccc1)(c1ccccc1)c1ccccc1 | % | 16.4
O=C(CC(=O)C(F)(F)F)c1ccccc1.O=C(CC(=O)C(F)(F)F)c1ccccc1.[Mn] | % | -13.7
Cc1ccc(C)c(N=Nc2c(C)nc(N)nc2C)c1 | % | -34.2
CCOC(=O)CNC(=O)SCc1ccccc1 | % | -8.1
O=C(COc1cc(Cl)c(Cl)cc1Cl)Nc1ccc(Cl)cc1 | % | 17.2
Cc1ccc(C)n1CCCCCCCn1c(C)ccc1C | % | -22.8
BrC1(Br)C2CCCCCCC21 (configuration not stated) | % | -6.6

Query: If you can, please state the reported growth inhibition value of CCOc1ccc(N=Nc2c(-c3ccccc3)nn(C(=O)CC(=O)Nc3ccccc3Cl)c2-c2ccccc2)cc1 .
Response: 3.5

Query: If you can, please state the reported growth inhibition value of N#Cc1nc(C2CC2)oc1N .
Response: 0.35

Query: If you can, please state the reported growth inhibition value of COc1ccc2oc3c(OC)c(OC)c(OC)cc3c(=O)c2c1 .
Response: 6

Query: If you can, please state the reported growth inhibition value of O=[N+]([O-])c1cc(C(Nc2nncs2)Nc2nncs2)ccc1Cl .
Response: 11

Query: If you can, please state the reported growth inhibition value of CCNc1ncnc2ncn(C)c12 .
Response: 12.6

Query: If you can, please state the reported growth inhibition value of CCCCCCCS(=O)c1nc2ccccc2s1 (configuration not stated) .
Response: 20.2

Query: If you can, please state the reported growth inhibition value of O=C(Oc1ccc(O)cc1)N(c1cccc2ccccc12)c1cccc2ccccc12 .
Response: 22.4

----------
Quick reference for growth inhibition among some molecules
TEST_DETAILS: NCI Yeast Anticancer Drug Screen. Data for the rad50 strain (AID 155);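 further: 0% = growth of vehicle-only cultures of the same strain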
CONDITION_NOTES: S. cerevisiae rad50 strain growth inhibition, hits give high values; at 50.0 µM unless noted
Compounds without any hit were thinned out: in the full panel of roughly 79,000, 15% have a hit. The source made the active and inactive calls. Cut-off read from the data, not from the text of the source: active = growth inhibition above about 70%; inactive = the rest.

MOLECULE | growth inhibition
CCN(CC)CCN=Cc1ccccc1OC | 15.9% (inactive)

Query: If you can, please state the reported growth inhibition value of CCN(CC)CCOC(=O)c1cc2ccccc2s1 .
Response: 23.2% (inactive)

----------
TEST_DETAILS: NCI Yeast Anticancer Drug Screen. Data for the mlh1 rad18 strain (AID 175)
CONDITION_NOTES: S. cerevisiae mlh1 rad18 strain growth inhibition, hits give high values; at 50.0 µM unless noted
This is part of a sample that, as a whole, favours compounds with a hit. Of some 79,000 tested, about 15% had one in any assay.
MEASURED_QUANTITY: growth inhibition (%)
Write down the numeric answer in % and omit the unit.

Query: If you can, please state the reported growth inhibition value of CC(C)(C)C(=O)Oc1ccc([N+](=O)[O-])cc1 .
Response: 10.2

Query: If you can, please state the reported growth inhibition value of Nc1ccc(OCc2ccccc2)cc1[N+](=O)[O-] .
Response: 21

Query: If you can, please state the reported growth inhibition value of COC(=O)c1ccc2c(c1)CC1(C2)Cc2cc3c(cc2C1)CCC3 .
Response: -12.5

Query: If you can, please state the reported growth inhibition value of O=C1OCC/C1=C/c1ccc(N=Nc2c(O)ccc3ccccc23)cc1 .
Response: 7.05

Query: If you can, please state the reported growth inhibition value of N#Cc1nc(C2CC2)oc1N .
Response: 1.65

Query: If you can, please state the reported growth inhibition value of COC(=O)c1[nH]nc(-c2ccccc2)c1N .
Response: 1.9

Query: If you can, please state the reported growth inhibition value of CCN(CC)CCCC(C)NCC1C(O)CCC2CN3CCc4c([nH]c5ccccc45)C3CC21 (stereo not drawn) .
Response: 25.1

----------
TEST_DETAILS: NCI Yeast Anticancer Drug Screen. Data for the bub3 strain (AID 167)
CONDITION_NOTES: S. cerevisiae bub3 mutant strain, hits give high values; at 50.0 µM unless noted
This is part of a sample that, as a whole, favours compounds with a hit. Of some 79,000 tested, about 15% had one in any assay.
MEASURED_QUANTITY: growth inhibition (%)
Write down the numeric answer in % and omit the unit.

COMPOUND | MEASURED_QUANTITY | QUANTITATIVE_RESULT
O=NN(CCCl)C(=O)Oc1ccccc1 | growth inhibition | -1.9
COc1cc(C2CC(C)(Nc3ccccc3)Oc3cc4c(cc32)OCO4)cc(OC)c1OC (stereo not given) | growth inhibition | 4.1

Query: If you can, please state the reported growth inhibition value of C=C1CC(c2ccccc2)(c2cccs2)OC1=O (stereo not given) .
Response: 90.5

Query: If you can, please state the reported growth inhibition value of CCOC(=O)CON=c1c2ccccc2ccc2ccccc12 .
Response: -10.2

Query: If you can, please state the reported growth inhibition value of COc1c2c(cc3c1C(CCCc1ccccc1)N(C)CC3)OCO2 (stereo not given) .
Response: 9.75

----------
TEST_DETAILS: NCI Yeast Anticancer Drug Screen. Data for the cln2 rad14 strain (AID 165);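 further: 0% = growth equal to vehicle treated cultures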
CONDITION_NOTES: S. cerevisiae cln2 rad14 strain, hits give high values; at 50.0 µM unless noted
The panel holds about 79,000 compounds, 15% with a hit somewhere; the sample as a whole holds those more often. The source made the active and inactive calls. Rule as the data show it: active = growth inhibition above about 70%; inactive = the rest.
Quick reference for growth inhibition among some molecules

MOLECULE | growth inhibition
CN1C(=O)C/C(=C/[N+](=O)[O-])c2ccccc21 | 8.05% (inactive)
Oc1ccc(Br)cc1/C=N/N1CCN(/N=C/c2cc(Br)ccc2O)CC1 | 14.9% (inactive)
COC1CCC(=O)N1CN(C(C)=O)c1ccc(C)cc1 (stereo not drawn) | 28.4% (inactive)

Query: If you can, please state the reported growth inhibition value of OC12c3ccccc3C1CCCCCCCCCC21OCCCO1 (stereo not drawn) .
Response: 6.4% (inactive)

Query: If you can, please state the reported growth inhibition value of C/C(=N\NC(=S)Nc1ccccc1)[C@H]1C2CCC(C2)C1C/C=C\CCCC(=O)O (stereo partly drawn) .
Response: 48.1% (inactive)

Query: If you can, please state the reported growth inhibition value of COc1cccc(C)c1C(=O)O .
Response: -20.1% (inactive)

Query: If you can, please state the reported growth inhibition value of COc1ccc(CCC(=O)c2ccc(N)cc2)cc1 .
Response: -11.5% (inactive)

Query: If you can, please state the reported growth inhibition value of COc1ccc(C2=NC(CO)[C@H](c3ccccc3)O2)cc1OC (stereo partly drawn) .
Response: 17.4% (inactive)

Query: If you can, please state the reported growth inhibition value of OCC1OC(n2cnc3c2NC=NC[C@H]3O)C(O)C1O (stereo partly drawn) .
Response: -7.55% (inactive)

Query: If you can, please state the reported growth inhibition value of CC12CCC(=O)C=C1CCCC2=O (stereo not drawn) .
Response: -14.7% (inactive)

Query: If you can, please state the reported growth inhibition value of COc1ccc(C2=C(N)c3ncccc3C2=O)cc1 .
Response: 4.65% (inactive)

Query: If you can, please state the reported growth inhibition value of COC(=O)/C=C(/Sc1nc(Cl)c(Cl)nc1N)C(=O)OC (tested in a mixture with another compound) .
Response: -4.3% (inactive)

----------
TEST_DETAILS: NCI Yeast Anticancer Drug Screen. Data for the sgs1 mgt1 strain (AID 161);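 further: 0% = growth of cultures given vehicle only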
CONDITION_NOTES: S. cerevisiae sgs1 mgt1 strain, hits give high values; at 50.0 µM unless noted
About 79,000 compounds went through this panel and 15% of them were active in at least one assay; those are over-represented in the sample as a whole.
MEASURED_QUANTITY: growth inhibition (%)
Write down the numeric answer in % and omit the unit.

MOLECULE | growth inhibition / %
NC(=S)N/N=C1/CN(c2ccc(Cl)c(Cl)c2)CC(=O)C1c1nc2ccccc2s1 (stereo not drawn) | 53
O=C(NC1(Sc2ccccc2)CC1)c1ccc(Cl)cc1 | 8.9
C[n+]1c(/C=C\C=C\c2ccccc2)sc2ccccc21 | 16.1
COC(=O)c1ccccc1NC(=O)Nc1ncccn1 | -7.2
CCCCCCCCCCCCNCCC(=O)O | 42.1

Query: If you can, please state the reported growth inhibition value of CC(C)(C)C(=O)NC(OC(NC(=O)C(C)(C)C)C(=O)C(C)(C)C)C(=O)C(C)(C)C (stereo not drawn) .
Response: -21.4

Query: If you can, please state the reported growth inhibition value of CC(=NCCCCN=C(C)c1cc(O)cc(Br)c1O)c1cc(O)cc(Br)c1O.[Co] .
Response: 12.3

Query: If you can, please state the reported growth inhibition value of CC[N+]1(CC)CCOC(=O)C1 .
Response: -3.9

Query: If you can, please state the reported growth inhibition value of CCOC(=O)C1=C(O)C(=O)C=C(O)C1=N .
Response: -11.6

Query: If you can, please state the reported growth inhibition value of COc1cc(Nc2cnc3cc(C(F)(F)F)ccc3n2)cc(OC)c1OC .
Response: 21.9

Query: If you can, please state the reported growth inhibition value of CCCCCCOc1ccccc1CO .
Response: -1.5

Query: If you can, please state the reported growth inhibition value of O=C(c1ccc(-c2ccccc2)cc1)c1ncc(-c2ccc(-c3ccccc3)cc2)[nH]1 .
Response: 17.1

Query: If you can, please state the reported growth inhibition value of CSc1nc(C)cc(=O)[nH]1 .
Response: -17.9
